test system: rumen fluid; experiment: In vitro incubation of rumen fluid: digestibility, fermentation characteristics, gas and methane production, VFA; type: cell-based, Hanwoo cows; conditions: 0.2 mmol/L, 24 h
molecules and their reported pH
In your answer, state the number alone without any accompanying words.

molecule | experimental.target | assay.value
C=CC(N)=O [AA, acrylamide] | rumen fluid | 6.21
NC(=O)CI [IA, iodoacetamide] | rumen fluid | 6.19
NC(=O)CCl [CLA, 2-chloroacetamide] | rumen fluid | 6.19
CCC(N)=O [PA, propionamide] | rumen fluid | 6.22

Input: Specify the recorded pH for NC(=O)CO [GA, glycolamide] , system: rumen fluid.
Output: 6.22

* * *

test system: Fibrobacter succinogenes; test: qPCR absolute quantification of Fibrobacter succinogenes after in vitro rumen incubation; assay type: cell-based; settings: 0.2 mmol/L, 24 h
readout.type: Fibrobacter succinogenes (absolute quantification, qPCR)

// below: answered compounds
compound | experimental.target | assay.value
C=CC(N)=O [AA, acrylamide] | Fibrobacter succinogenes | 9.39^C
NC(=O)CO [GA, glycolamide] | Fibrobacter succinogenes | 9.36^C
CCC(N)=O [PA, propionamide] | Fibrobacter succinogenes | 9.35^C
NC(=O)CI [IA, iodoacetamide] | Fibrobacter succinogenes | 9.79^A

Input: Supply reported Fibrobacter succinogenes (absolute quantification, qPCR) belonging to this compound: NC(=O)CCl [CLA, 2-chloroacetamide]
Output: 9.54^B
